Measured protein stability index by item
# Tested on: Saccharomyces cerevisiae
# protocol_details: protein stability index of tFT-peptide fusion (C-terminal peptide) (PSI (0-1 scale)); higher = more stable (slower turnover)
# conditions_used: genetic background: wild type; temperature: 30 C

entry_sequence | protein stability index
KHTGTGNAPNCD | 0.635
QVLISLYVHGYF | 0.426
RLIAVAGVVVVA | 0.431
RLLSIFKILHVG | 0.0968
GTVRSLLKWRCS | 0.192
FSLSLFPYPFSL | 0.672
LWFVIYLLCFFV | 0.291
ILLICLQFFNLF | 0.36
FYLSFWFLIFFF | 0.215
VVRYGGVIAFRG | 0.691
IGSFFLFFLLIF | 0.245
LVSCGNFLVFCF | 0.234
CVCPFCVWVSCL | 0.263
FYFMGFFFGLGM | 0.504
KRMVEKNKKKIN | 0.201
FSFVVRMFFRIL | 0.0811
LLCLCSLPVFAS | 0.27
RSLRVLLPLYFR | 0.234
STLPACNCLKLL | 0.371
VCCYILFFLFPV | 0.337
GGLLSQLLRSIG | 0.279
PLRKYLRHLLSL | 0.159
WISDRCPSVLCY | 0.157
VRWLVFFLFLFG | 0.327
FGGYLRAGVFLT | 0.387
VAVFFFCRVFFL | 0.211
VSLLSLGYVFVY | 0.216
LCIFFWFSSFFL | 0.389
CRGLSWRMITCL | 0.14
SFFYFVFYYLSF | 0.204
FYLFPSLPLLLL | 0.339
ESRDRRVGIANW | 0.647

----------
# Tested on: Saccharomyces cerevisiae
# protocol_details: protein stability index of tFT-peptide fusion (C-terminal peptide) (PSI (0-1 scale)); higher = more stable (slower turnover)
# conditions_used: genetic background: wild type; temperature: 30 C

entry_sequence | protein stability index
SRVVLSQGDSDD [TOF1 C-terminal 12 aa] | 0.662
TQQVVDDVLSRL [LYS12 C-terminal 12 aa] | 0.732
LNKKSSVKILLY [CMS1 C-terminal 12 aa] | 0.614
WDLEQIMSQHGF [PCL1 C-terminal 12 aa] | 0.735
FGYESTDQILKL [NNR1 C-terminal 12 aa] | 0.708
GSSGRLTASPVY [PEX2 C-terminal 12 aa] | 0.684
WRQEYPGVDEFF [PRM8 C-terminal 12 aa] | 0.748
VRKVAQWLQQLT [FSH2 C-terminal 12 aa] | 0.581
APHVLNDLLLKF [PGA1 C-terminal 12 aa] | 0.666
VISYLLGADIHF [SMF3 C-terminal 12 aa] | 0.714
LDKEMADYFEKK [YRA1 C-terminal 12 aa] | 0.706
DAKFMMQASCSS [FMP40 C-terminal 12 aa] | 0.682
KLRNSNNTRAED [AVO2 C-terminal 12 aa] | 0.672
PGTRGRVASKFL [MIM1 C-terminal 12 aa] | 0.705
GEVVKTIIFGPE [SOR1 C-terminal 12 aa] | 0.696
GYYQRRNKRKRA [UTP20 C-terminal 12 aa] | 0.69
TDGSKEDVDALP [ZNF1 C-terminal 12 aa] | 0.716
SLKPSEKKLYYL [NTH2 C-terminal 12 aa] | 0.663
LCPVFFTWTNLR [YSR3 C-terminal 12 aa] | 0.656
EDDEDGSGVEYD [RTT106 C-terminal 12 aa] | 0.7
ARLVSNEPILLD [CWC23 C-terminal 12 aa] | 0.704
NEKRNEPKPSTN [YTA12 C-terminal 12 aa] | 0.656
SKILFLCQINIS [YNR042W C-terminal 12 aa] | 0.313
KKSKPRANKLTI [ECM2 C-terminal 12 aa] | 0.696
GAAIAGAAAMLL [TIR3 C-terminal 12 aa] | 0.713
GGNKQAPGLELG [YMR242W-A C-terminal 12 aa] | 0.702
GQTSRTVTPAPN [ITC1 C-terminal 12 aa] | 0.689
MAQNYVIDRMGL [MTC1 C-terminal 12 aa] | 0.68
THKQYFWKKPAK [TOS4 C-terminal 12 aa] | 0.688
LIGFGNQVSKAL [BUD25 C-terminal 12 aa] | 0.723
EQGGEGVQCASQ [YDJ1 C-terminal 12 aa] | 0.69
GKKLVQEAFRIV [YPL039W C-terminal 12 aa] | 0.675
RVAVIEDDEDED [LEO1 C-terminal 12 aa] | 0.692
HCGARLTVIPKK [YER137C C-terminal 12 aa] | 0.688
FDLIKLALQRKK [AGX1 C-terminal 12 aa] | 0.68
YTDLASIASGRD [SHS1 C-terminal 12 aa] | 0.714
RDLFEIYQKMMQ [MUK1 C-terminal 12 aa] | 0.706
